Below are compounds with their Kd as measured on SARS‐CoV‐2 Mpro (Severe acute respiratory syndrome coronavirus 2, UniProt P0DTD1).
In your response, put the unit directly after the numeric value.

Below, each entry is followed by its recorded Kd result.
# Compound, Target Under Test, Recorded Result
measured = [
    ("Cc1cc2ncn(S(=O)(=O)c3ccc(S(N)(=O)=O)cc3)c2cc1C [compound 9]", "SARS‐CoV‐2 Mpro (Severe acute respiratory syndrome coronavirus 2, UniProt P0DTD1)", "39 µM"),
    ("CCOc1cccc(-c2nn3c(-c4cccnc4)nnc3s2)c1 [compound 8]", "SARS‐CoV‐2 Mpro (Severe acute respiratory syndrome coronavirus 2, UniProt P0DTD1)", "23.9 µM"),
]

Shift focus to the following entry.
## Task Could you share what Kd was measured for Cc1ccc(C(=O)NCCCNC(=O)c2ccccn2)cc1C [compound 7] , tested on SARS‐CoV‐2 Mpro (Severe acute respiratory syndrome coronavirus 2, UniProt P0DTD1)?
## Result 2.8 µM
